Cited source for all entries: patent US12668599B2

# Test system: VCaP cells
# testDetails: Cellular growth inhibition assay for VCaP cells (CellTiter-Glo 2.0, 72 hours)
# Format: cell-based, human
# conditionContext: GI50 of the top compound in the pair divided by GI50 of the lower compound
readoutType: Ratio of GI50's
Write the number on its own, no unit after it.

Please review the entries below; each comes with its answer.
compound: COc1cc(O[C@H]2C(C)(C)[C@H](NC(=O)c3cnc(N4CCC5(CCC(c6ccc(C7=N[C@@H](Cc8ncco8)c8nnc(C)n8-c8sc(C)c(C)c87)cc6)CC5)C4)nc3)C2(C)C)ccc1C#N
observedResult: 1
--
compound: COc1cc(O[C@H]2CC[C@H](NC(=O)c3ccc(N4CCC5(CC4)CC(Oc4ccc(C6=N[C@@H](Cc7ncco7)c7nnc(C)n7-c7sc(C)c(C)c76)cc4)C5)nn3)CC2)ccc1C#N
observedResult: 1
--
compound: Cc1sc2c(c1C)C(c1ccc(N3CCC4(CC3)CCN(c3ccc(C(=O)N[C@H]5CC[C@H](Oc6ccc(C#N)c(Cl)c6)CC5)nn3)C4)cc1)=N[C@@H](C)c1nnc(C)n1-2 [H, reference compound]
observedResult: 1.8
--
compound: Cc1sc2c(c1C)C(c1ccc(CC3CC4(CCN(c5ncc(C(=O)N[C@H]6C(C)(C)[C@H](Oc7ccc(C#N)c(Cl)c7)C6(C)C)cn5)CC4)C3)cc1)=N[C@@H](Cc1ncco1)c1nnc(C)n1-2 [C, reference compound]
observedResult: 2.6
--
compound: COc1cc(O[C@H]2CC[C@H](NC(=O)c3ccc(N4CCC5(CCN(c6ccc(C7=N[C@@H](C)c8nnc(C)n8-c8sc(C)c(C)c87)cc6)CC5)C4)nn3)CC2)ccc1C#N
observedResult: 1
--
compound: COc1cc(O[C@H]2C(C)(C)[C@H](NC(=O)c3cnc(N4CCC5(CC4)CC(Oc4ccc(C6=N[C@@H](Cc7ncco7)c7nnc(C)n7-c7sc(C)c(C)c76)cc4)C5)nc3)C2(C)C)ccc1C#N
observedResult: 1
--
compound: Cc1sc2c(c1C)C(c1ccc(CC3CC4(CCN(c5ccc(C(=O)N[C@H]6CC[C@H](Oc7ccc(C#N)c(Cl)c7)CC6)nn5)CC4)C3)cc1)=N[C@@H](Cc1ncco1)c1nnc(C)n1-2 [F, reference compound]
observedResult: 1.9

Shifting focus to the compound that follows.
Hello, please tell me recorded Ratio of GI50's for this one: Cc1sc2c(c1C)C(c1ccc(C#CC3CC4(C3)CN(c3ccc(C(=O)N[C@H]5CC[C@H](Oc6ccc(C#N)c(Cl)c6)CC5)nn3)C4)cc1)=N[C@@H](Cc1ncco1)c1nnc(C)n1-2 [G, reference compound]
1.5
